src = patent US20260078130A1

# assay_system: human enzyme NAMPT (full length) (Homo sapiens, UniProt P43490)
# Construct: human enzyme NAMPT (full length)
# Sequence (P43490 whole entry): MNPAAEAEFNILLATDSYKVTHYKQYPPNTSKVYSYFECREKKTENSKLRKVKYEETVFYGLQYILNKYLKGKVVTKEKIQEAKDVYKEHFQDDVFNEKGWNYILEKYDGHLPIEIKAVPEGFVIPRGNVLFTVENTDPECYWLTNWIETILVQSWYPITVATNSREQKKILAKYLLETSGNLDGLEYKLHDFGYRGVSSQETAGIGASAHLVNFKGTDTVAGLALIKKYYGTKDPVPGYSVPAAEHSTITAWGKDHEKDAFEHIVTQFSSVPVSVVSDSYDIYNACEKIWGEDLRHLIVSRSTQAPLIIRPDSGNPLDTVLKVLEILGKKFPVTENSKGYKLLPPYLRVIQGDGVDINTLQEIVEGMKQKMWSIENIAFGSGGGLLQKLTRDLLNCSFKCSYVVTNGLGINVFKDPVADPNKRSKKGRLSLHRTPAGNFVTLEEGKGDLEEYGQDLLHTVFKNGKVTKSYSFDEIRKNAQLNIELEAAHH
# assay_overview: NMN fluorescence biochemical assay (stimulation of NMN synthesis by NAMPT)
# test_parameters: fold change of maximal activation compared to DMSO
# Description: Certain compounds described herein were assayed for their ability to stimulate the synthesis of nicotinamide mononucleotide (NMN) by human enzyme NAMPT (full length). […] Fluorescence (Ex/Em=382/445 nm) was measured using an Envision plate reader. The potency measurements for the test compounds were quantified and represented as EC50 (concentration of a compound that gives half-maximal activation) and Emax (fold change of a compound's maximal activation compared to DMSO).
readout_label: Enzymatic Emax

Known Enzymatic Emax results, listed for orientation:
- compound: "Cn1ncc(Cl)c1CC1c2ccccc2C(C)(C)N1Cc1cnc(O)s1 (centres unmarked)"
  recorded_measurement: "B (3≥B>2)"
- compound: "O=C1c2ccccc2C(Cc2ncccc2Br)N1Cc1ccc2[nH]cnc2c1 (centres unmarked)"
  recorded_measurement: "A (A>3)"
- compound: "Cn1ncc(Cl)c1CC1c2cc(F)ccc2C(=S)N1CC1CC2(CNC(=O)O2)C1 (centres unmarked)"
  recorded_measurement: "B (3≥B>2)"
- compound: "Cn1ncc(Cl)c1CC1c2ccccc2C(=O)N1CC1CC(=O)C1 (centres unmarked)"
  recorded_measurement: "B (3≥B>2)"
- compound: "Cc1c(C#N)cccc1CC1c2ccccc2C(=O)N1Cc1ccc2[nH]c(=O)oc2c1 (centres unmarked)"
  recorded_measurement: "B (3≥B>2)"

Req: Give the measured Enzymatic Emax for Cc1nnn2cc(CN3C(=O)c4ccccc4C3Cc3c(Cl)cnn3C)ccc12 (centres unmarked)
Resp: B (3≥B>2)

###

# assay_system: human enzyme NAMPT (full length) (Homo sapiens)
# Construct: human enzyme NAMPT (full length)
# assay_overview: NMN fluorescence biochemical assay (stimulation of NMN synthesis by NAMPT)
# test_parameters: NMN fluorescence assay, purified human NAMPT 100 nM; concentration giving half-maximal activation; read-out: Enzymatic EC50
pEC50: −log10 of the molar value.
The following molecules are listed with their measured pEC50 values.

// below: answered molecules
- molecule: "COc1ccc(CN2C(=O)c3ccccc3C2Cc2c(C)ncnc2C#N)cc1 (stereo not drawn) [Compound 597]"
  pEC50: "5.30 to 6.30"
- molecule: "Cn1ncc(Cl)c1CC1c2ccccc2C(C)(C)N1CC1CC(C(N)=O)C1 (stereo not drawn) [Compound 607]"
  pEC50: "≤ 5.30"
- molecule: "COc1ccc(CN2C(=O)c3ccccc3C2Cc2c(C)ncnc2C#N)cn1 (stereo not drawn) [Compound 595]"
  pEC50: "5.30 to 6.30"

Req: Please look at this molecule and report its pEC50: Cc1ccnc(C#N)c1CC1c2ccccc2C(=O)N1CC1CCc2[nH]nnc2C1 (stereo not drawn) [Compound 454]
Resp: ≤ 5.30

Req: Recall and state the measured pEC50 for Cn1ncc(Cl)c1CC1c2ccccc2C(=O)N1CC1CC2(CNC(=O)N2)C1 (stereo not drawn) [Compound 611] .
Resp: ≤ 5.30

Req: Identify the reported pEC50 for the following entry. COc1ccc(CN2C(=O)c3ccc(C4CC4)cc3C2Cc2c(C)ncnc2C#N)cn1 (stereo not drawn) [Compound 640]
Resp: ≤ 5.30

Req: For the molecule COc1ccc(CN2C(=O)c3ccc(C4CC4)cc3C2Cc2c(Cl)cnn2C)cc1 (stereo not drawn) [Compound 624] , report pEC50.
Resp: 5.30 to 6.30

Req: Consider the molecule Cn1ncc(Cl)c1CC1c2ccccc2C(=O)N1Cc1c[nH]nn1 (stereo not drawn) [Compound 637] and give its recorded pEC50.
Resp: ≤ 5.30

Req: Please report the measured pEC50 for O=C1c2sc(Br)nc2CN1Cc1ccc(O)cc1 [Compound 447]
Resp: ≤ 5.30

###

# assay_system: human enzyme NAMPT (full length) (Homo sapiens, UniProt P43490)
# Construct: human enzyme NAMPT (full length)
# assay_overview: NMN fluorescence biochemical assay (stimulation of NMN synthesis by NAMPT)
# test_parameters: fold change of maximal activation compared to DMSO
# Method: Certain compounds described herein were assayed for their ability to stimulate the synthesis of nicotinamide mononucleotide (NMN) by human enzyme NAMPT (full length). […] Fluorescence (Ex/Em=382/445 nm) was measured using an Envision plate reader. The potency measurements for the test compounds were quantified and represented as EC50 (concentration of a compound that gives half-maximal activation) and Emax (fold change of a compound's maximal activation compared to DMSO).

- molecule: "Cc1ccnc(C(N)=O)c1CC1c2ccccc2C(=O)N1Cc1ccc2[nH]nnc2c1 (stereo not shown)"
  Enzymatic Emax: "A (A>3)"
- molecule: "Cn1ncc(Cl)c1CC1c2ccc(F)cc2C(=O)N1Cc1ccc2[nH]nnc2c1 (stereo not shown)"
  Enzymatic Emax: "A (A>3)"
- molecule: "O=C1c2ccc(C3CC3)cc2C(Cc2ncccc2Br)N1Cc1ccc2[nH]c(=O)oc2c1 (stereo not shown)"
  Enzymatic Emax: "A (A>3)"

###

# assay_system: human enzyme NAMPT (full length) (Homo sapiens)
# Construct: human enzyme NAMPT (full length)
# assay_overview: NMN fluorescence biochemical assay (stimulation of NMN synthesis by NAMPT)
# test_parameters: NMN fluorescence assay, purified human NAMPT 100 nM; concentration giving half-maximal activation; read-out: Enzymatic EC50
// EC50 lookup, one value per entry

As a guide, the following entries are already answered.
- compound: "Cn1ncc(Cl)c1CC1c2ccccc2C(=O)N1CC1CC2(COC2)C1 (centres unmarked) [Compound 564]"
  EC50: "≥ 5 µM"
- compound: "Cc1cc(Cl)n(CC2c3ccccc3C(=O)N2Cc2ccc3[nH]nnc3c2)n1 (centres unmarked) [Compound 355]"
  EC50: "≥ 5 µM"
- compound: "COc1ccc(CN2C(=O)c3ccccc3C2(C)Cc2c(Cl)cnn2C)cn1 (centres unmarked) [Compound 620]"
  EC50: "≥ 5 µM"
- compound: "O=C1c2ccccc2C(Cc2ncccc2Br)N1CC#Cc1cn[nH]n1 (centres unmarked) [Compound 417]"
  EC50: "< 0.5 µM"

As a next step, examine the compound that follows.
Req: Kindly indicate its recorded EC50. Item: COc1ccc(CN2C(=O)c3ccccc3C2Cc2c(C)ccnc2C#N)cn1 (centres unmarked) [Compound 588]
Resp: ≥ 5 µM

###

# assay_system: human enzyme NAMPT (full length) (Homo sapiens)
# Construct: human enzyme NAMPT (full length)
# assay_overview: NMN fluorescence biochemical assay (stimulation of NMN synthesis by NAMPT)
# test_parameters: fold change of maximal activation compared to DMSO

- compound: "O=C1c2ccccc2C(Cc2ncccc2Br)N1Cc1ccc2[nH]c(=O)oc2n1 (stereo not shown) [Compound 241]"
  assay_system: "human enzyme NAMPT (full length) (Homo sapiens)"
  Enzymatic Emax: "A (A>3)"
- compound: "CN(C)c1ccc2c(c1)C(Cc1c(Cl)cnn1C)N(CC1CC3(CNC(=O)O3)C1)C2=O (stereo not shown) [Compound 498]"
  assay_system: "human enzyme NAMPT (full length) (Homo sapiens)"
  Enzymatic Emax: "B (3≥B>2)"
- compound: "Cc1cccc(CC2c3ccccc3C(=O)N2Cc2ccc3[nH]c(=O)oc3c2)n1 (stereo not shown) [Compound 158]"
  assay_system: "human enzyme NAMPT (full length) (Homo sapiens)"
  Enzymatic Emax: "A (A>3)"
- compound: "O=C1c2ccccc2C(Cc2nn(C3CNC3)cc2Cl)N1Cc1ccc2[nH]nnc2c1 (stereo not shown) [Compound 413]"
  assay_system: "human enzyme NAMPT (full length) (Homo sapiens)"
  Enzymatic Emax: "B (3≥B>2)"

###

# assay_system: human enzyme NAMPT (full length) (Homo sapiens)
# Construct: human enzyme NAMPT (full length)
# assay_overview: NMN fluorescence biochemical assay (stimulation of NMN synthesis by NAMPT)
# test_parameters: fold change of maximal activation compared to DMSO
readout_label: Enzymatic Emax

In the examples that follow, each entry is paired with its recorded Enzymatic Emax.
- molecule: "O=C1c2ccccc2CN1Cc1ccc2[nH]nnc2c1"
  readout_label: "Enzymatic Emax"
  recorded_measurement: "C (2≥C)"
- molecule: "[2H]C([2H])(c1c(Cl)cnn1C)C1c2ccccc2C(C)(C)N1CC1CC2(CNC(=O)O2)C1 (centres unmarked)"
  readout_label: "Enzymatic Emax"
  recorded_measurement: "A (A>3)"
- molecule: "Cc1onc(C#N)c1C(O)C1c2ccccc2C(=O)N1Cc1ccc2[nH]nnc2c1 (centres unmarked)"
  readout_label: "Enzymatic Emax"
  recorded_measurement: "B (3≥B>2)"
- molecule: "CN(C)c1ccc2c(c1)C(=O)N(Cc1ccc(O)cc1)C2"
  readout_label: "Enzymatic Emax"
  recorded_measurement: "C (2≥C)"
- molecule: "Cn1ncc(Cl)c1CC1c2ccccc2C(=O)N1C[C@@H]1CC1c1c[nH]nn1 (stereo in doubt)"
  readout_label: "Enzymatic Emax"
  recorded_measurement: "B (3≥B>2)"
- molecule: "[2H]C([2H])([2H])Oc1ccc(CN2C(=O)c3ccccc3C2Cc2c(C)ccnc2C#N)cc1 (centres unmarked)"
  readout_label: "Enzymatic Emax"
  recorded_measurement: "A (A>3)"
- molecule: "COc1ccc(CN2C(=O)c3c(F)cc(Cl)cc3C2Cc2c(Cl)cnn2C)cc1 (centres unmarked)"
  readout_label: "Enzymatic Emax"
  recorded_measurement: "A (A>3)"
- molecule: "Cn1ncc(Cl)c1CC1c2ccccc2C(=O)N1CC1CC1C(N)=O (centres unmarked)"
  readout_label: "Enzymatic Emax"
  recorded_measurement: "C (2≥C)"

Req: Quote Enzymatic Emax reported for Cn1ncc(Cl)c1CC1c2ccccc2C(=O)N1Cc1ccc2c(c1)ncn2C (centres unmarked) please.
Resp: B (3≥B>2)

Req: Respond only with Enzymatic Emax recorded for N#Cc1nccc(Cl)c1CC1c2ccccc2C(=O)N1Cc1ccc2[nH]c(=O)oc2c1 (centres unmarked)
Resp: A (A>3)

Req: Please supply the value of reported Enzymatic Emax for the item Cc1ccc2c(c1)CN(Cc1ccc3[nH]c(=O)oc3c1)C2=O
Resp: B (3≥B>2)

Req: Check the records and state Enzymatic Emax for N#Cc1ccc(CC2c3ccccc3C(=O)N2Cc2ccc3[nH]c(=O)oc3c2)cc1 (centres unmarked)
Resp: B (3≥B>2)

Req: Quote Enzymatic Emax reported for Cn1cnc(Cl)c1CC1c2ccccc2C(=O)N1CC1CC2(CNC(=O)O2)C1 (centres unmarked) please.
Resp: B (3≥B>2)

Req: State its Enzymatic Emax: O=C1c2ccccc2C(Cc2ncccc2Br)N1CC1CCc2[nH]c(=O)oc2C1 (centres unmarked)
Resp: B (3≥B>2)
